target: FGFR1 (UniProt P11362); test: phosphorylation enrichment, bacterial display (enrichment ratio); higher = better substrate or ligand; peptides without Tyr show the background;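 also: 11-residue human phosphosite peptides and single-mutation variants displayed on the E. coli surface, counted by deep sequencing, each peptide's frequency after selection divided by its frequency in the unselected input library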;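 also: frequency after pTyr selection over input frequency; kinase dosed for 20-30% of maximal phosphorylation in three min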
Sequence (P11362 whole entry, looked up): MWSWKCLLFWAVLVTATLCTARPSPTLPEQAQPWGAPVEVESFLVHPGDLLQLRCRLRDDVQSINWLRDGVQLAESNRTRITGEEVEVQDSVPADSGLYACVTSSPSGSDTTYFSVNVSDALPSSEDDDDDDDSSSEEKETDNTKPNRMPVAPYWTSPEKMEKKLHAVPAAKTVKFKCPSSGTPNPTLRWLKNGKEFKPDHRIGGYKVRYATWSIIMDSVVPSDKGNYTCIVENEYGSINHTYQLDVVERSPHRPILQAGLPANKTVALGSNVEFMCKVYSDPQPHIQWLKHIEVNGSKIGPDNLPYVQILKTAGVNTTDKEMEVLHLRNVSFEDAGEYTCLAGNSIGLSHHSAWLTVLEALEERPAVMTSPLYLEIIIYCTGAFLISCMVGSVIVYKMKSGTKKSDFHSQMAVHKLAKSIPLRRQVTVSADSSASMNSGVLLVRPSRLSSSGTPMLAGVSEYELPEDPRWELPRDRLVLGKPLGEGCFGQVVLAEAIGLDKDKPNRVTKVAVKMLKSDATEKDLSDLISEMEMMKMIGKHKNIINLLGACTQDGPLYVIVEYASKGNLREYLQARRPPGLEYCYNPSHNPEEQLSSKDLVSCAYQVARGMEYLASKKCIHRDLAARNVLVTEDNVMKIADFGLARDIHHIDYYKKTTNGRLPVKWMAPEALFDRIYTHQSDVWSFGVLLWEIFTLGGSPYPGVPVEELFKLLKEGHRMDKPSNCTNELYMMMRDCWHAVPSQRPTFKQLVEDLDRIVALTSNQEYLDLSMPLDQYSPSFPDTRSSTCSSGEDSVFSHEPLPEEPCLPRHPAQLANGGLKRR
Think of 0.5 as a floor: if phosphorylation enrichment stands on it or above, it is rule met; beneath it, rule not met.

biosequence	labelValue
ALVDTYCRHNF [HLA-DRB1_Y107_A103L_YF]	rule not met
LHSEAYLKFNE [PBRM1_Y1610_I1614N_YF]	rule met
PAEPRYRARQR [KCNJ11_Y26]	rule met
IENKLYGMSDP [RET_Y1062]	rule met
RLKAKYPAATG [GLI3_Y933_A934P]	rule met
FAELVYTSFWH [ASS1_Y322_G324S]	rule met
SKDQICPMKLK [RANBP17_Y823_Y823C]	rule met
IIEDPYYGNDS [ACP1_Y132]	rule met
YFCRWYRNRKS [EREG_Y144]	rule met
SRIWVYNHFRW [BRCA2_Y2621_YF]	rule not met
NGPDVYVLPLT [AATK_Y93]	rule met
RFMELYDLNRD [BBS2_Y648_YF]	rule met
EPSLVYMVTKI [CPS1_Y768_D767V]	rule met
KDGIGYISAAE [CALM2_Y100_N98I]	rule not met
SQQTFCRVSNM [ABCD1_Y181_Y181C_YF]	rule not met
LLKNMYLMLDN [STAT1_Y203_K201N]	rule met
RHFSSYSQMEN [PKP1_Y120_R116H]	rule met
VRFMAYTDEIF [F8_Y450_T454I]	rule met
SARFPYLMAEK [LDHB_Y173_R172P]	rule not met
KDHPDYEYQPR [SOX9_Y172_K173E]	rule met
MSPPGYKLVNG [GJA1_Y286_T290N]	rule met
VQDPAYLRDIN [OPRK1_Y369_D374N]	rule not met
EEGNPYFSSAR [MCCC2_Y520_YF]	rule not met

* * *

test system: AncSZ; experiment: phosphorylation enrichment, bacterial display (enrichment ratio); higher = better substrate or ligand; peptides without Tyr show the background
So basically: phosphorylation enrichment at 1 or higher? That is fulfilled. Lower than 1? That is not fulfilled.

biosequence	targetEntity	labelValue
TKDTFHKQPMF [GBA_Y451_Y451H]	AncSZ	not fulfilled
RRETPYGGGGG [FUS_Y526_R524T]	AncSZ	not fulfilled
TIWDSYTTNKV [GNB1_Y85_I80T]	AncSZ	not fulfilled
FCRHNYGVVES [HLA-DRB1_Y112_YF]	AncSZ	not fulfilled
MSGDVYSTDFF [NTRK2_Y702_R699G_YF]	AncSZ	fulfilled
SKDQICPMKLK [RANBP17_Y823_Y823C]	AncSZ	not fulfilled
KLIETCFSKNY [PLP1_Y50_Y50C]	AncSZ	fulfilled
VGEGPYLISDL [ABCC12_Y7]	AncSZ	not fulfilled
KDHPDYEYQPR [SOX9_Y172_K173E]	AncSZ	fulfilled
EEVKAYLDFGE [CHAC2_Y78_R82G]	AncSZ	fulfilled
ERCAQYKKDGA [ALDOA_Y138]	AncSZ	not fulfilled
ANARMYGVLPW [PLP1_Y207_D203N]	AncSZ	not fulfilled
CKLVDYDSARH [BIN1_Y150_R145C]	AncSZ	not fulfilled
LLINKYGLSAH [SCP2_Y151]	AncSZ	not fulfilled
YPLELYERVRM [PRKCG_Y312]	AncSZ	fulfilled
LNPLIYTLKNA [OR4C46_Y285]	AncSZ	not fulfilled
AQPHTYEEPGR [EPHA8_Y616_E612Q]	AncSZ	not fulfilled
FLAVGYHKPYI [IDS_Y225_H229Y]	AncSZ	not fulfilled
VIKDKYPKVRF [APTX_Y209_A212V_YF]	AncSZ	not fulfilled
TVNIRYLLFPS [SERAC1_Y548_S543T]	AncSZ	fulfilled
HLWRIYFDITD [MMP27_Y307_YF]	AncSZ	fulfilled
VDGFVYKLHPS [GCK_Y413_S411F]	AncSZ	not fulfilled
KDFTIYNPNLL [VANGL1_Y290]	AncSZ	not fulfilled
KPGLKYVTYGN [GALNTL5_Y404]	AncSZ	not fulfilled
FGSSSYGGAGG [RPA2_Y14_YF]	AncSZ	not fulfilled
LVMFTYAIFGM [SCN1A_Y1684_I1683T]	AncSZ	fulfilled
IDAICYYRMEN [NPHS2_Y194]	AncSZ	fulfilled
HEPKGYNANFC [TGFB2_Y341]	AncSZ	not fulfilled
PINLYYLMDLS [ITGB2_Y131_D128N]	AncSZ	fulfilled
LLVVLNKYRCY [PSEN1_Y154_Y154N]	AncSZ	fulfilled
FEGRSYSACTT [MMP9_Y241]	AncSZ	not fulfilled
AISEGYKDFRA [CDA_Y79_V75I]	AncSZ	not fulfilled
HRGYLYLAIEY [TEK_Y899]	AncSZ	fulfilled
QNTGYYYDLYG [PTPN11_Y62_D61Y]	AncSZ	fulfilled
LSSVSYVGCSL [ADGRD1_Y571_I569V]	AncSZ	fulfilled
AKRKNYAPVTM [CFAP47_Y557_A561T]	AncSZ	not fulfilled
VDSTEYEVASQ [SLC7A7_Y7]	AncSZ	fulfilled
MSLDQYSPSFP [FGFR1_Y776_P772S]	AncSZ	not fulfilled
YSNKLYYQLEQ [PDPR_Y109]	AncSZ	fulfilled
EFFDGYWEFSV [ITGA2B_Y265_G267E_YF]	AncSZ	fulfilled
LIHLHYIRKDF [BBS4_Y43_YF]	AncSZ	fulfilled
CHSDDYVHISL [TSC1_Y406]	AncSZ	fulfilled
LTEHGYSFTTT [ACTB_Y198_R196H]	AncSZ	fulfilled
QKFMAYLSQGG [HLCS_Y236]	AncSZ	not fulfilled
KSAAIYNPVIF [RHO_Y301_YF]	AncSZ	not fulfilled

* * *

molecular target: Hck (UniProt P08631); experiment: phosphorylation enrichment, bacterial display (enrichment ratio); higher = better substrate or ligand; peptides without Tyr show the background
Sequence (P08631 whole entry, looked up): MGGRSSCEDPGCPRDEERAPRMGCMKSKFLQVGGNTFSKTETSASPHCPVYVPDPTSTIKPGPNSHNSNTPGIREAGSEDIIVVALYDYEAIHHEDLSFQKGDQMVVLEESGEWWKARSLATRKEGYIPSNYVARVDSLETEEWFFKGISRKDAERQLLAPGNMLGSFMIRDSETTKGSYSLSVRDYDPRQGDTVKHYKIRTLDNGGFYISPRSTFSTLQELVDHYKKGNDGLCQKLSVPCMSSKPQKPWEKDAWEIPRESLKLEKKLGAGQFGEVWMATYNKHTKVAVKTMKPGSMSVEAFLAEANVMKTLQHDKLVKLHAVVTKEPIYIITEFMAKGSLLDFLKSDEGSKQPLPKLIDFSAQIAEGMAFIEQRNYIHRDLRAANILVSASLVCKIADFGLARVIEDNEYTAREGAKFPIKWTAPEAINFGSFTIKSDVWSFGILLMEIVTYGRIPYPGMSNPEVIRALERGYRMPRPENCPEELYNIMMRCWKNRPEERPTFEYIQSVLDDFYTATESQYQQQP
Think of 0.6 as a floor: if phosphorylation enrichment stands on it or above, it is t; beneath it, f.

biosequence	labelValue
PLRANYLIARV [HLCS_Y635_D634N]	t
QAEEWYFGKMG [YES1_Y159]	t
FAELVYTSFWH [ASS1_Y322_G324S]	t
KNKKDYFDMFE [SLC26A3_Y526_YF]	f
TYVKSYTIHYS [F5_Y2153_M2148T]	f
VVHSSYDEIEG [SEC24A_Y263]	f
LIDGYYRLTAD [JAK2_Y373]	t
EERKTYVNTTL [TEK_Y1102]	f
KDFTIYNPNLL [VANGL1_Y290]	t
LTFHMYADPNF [SOS1_Y618_YF]	t
EFQLPYFNTVP [BMPR1A_Y457_M460T_YF]	f
NPQKSCFIRLF [WAS_Y83_Y83C_YF]	f
HDEPTYARSSK [PEAK1_Y616]	t
EWQQTYTYDSG [JUP_Y20]	t
EFTPLYPMLFG [SCLY_Y280]	f
RMSQRYGDVLQ [CYP1A2_Y72]	f
KWHREYNSKYV [RICTOR_Y835]	f
QKFMAYLSQGG [HLCS_Y236]	t
QYQEKYKQMEQ [HCN4_Y531_V534M]	f
DGFIDYAEFAK [MCFD2_Y138_YF]	f
MSPPGYKLVNG [GJA1_Y286_T290N]	f
KLQKKYGPIYS [CYP17A1_Y60]	t
ADGLEYPRTGL [MMUT_Y287_S288P]	f
SRDDDYETIAM [NPY1R_Y347]	t
LERYIYNREEF [HLA-DPB1_Y59]	t
HRGYLYLAIEY [TEK_Y899]	f
CVAARYMDVKG [WFIKKN2_Y93]	f
HEKKAYSFCGT [RPS6KA3_Y226]	t
IGRWVYPLTPE [EIF2B5_Y319_R315G]	f
CENCHYPIVPL [LCK_Y25]	f
LNCIFYKDQTG [RS1_Y166_W163C_YF]	t
YIILIYAMKKK [SLCO1B1_Y645]	f
DYYDLYGGEKF [PTPN11_Y66]	t
DFPGIYSGFDD [POLR1C_Y33_N32I_YF]	t
KSAAIYNPVIF [RHO_Y301_YF]	t
GSTLSYGRDGR [MATR3_Y158_P154S]	f
SVVVPYEPHEV [TP53_Y220_P223H]	f

* * *

The entries below are paired with their reported phosphorylation enrichment.
tested on: AncSZ; assay: phosphorylation enrichment, bacterial display (enrichment ratio); higher = better substrate or ligand; peptides without Tyr show the background

biosequence	phosphorylation enrichment
DSRRDYVSQFE [APOA1_Y53_G50R]	0.762
TGILLHGLASR [QARS1_Y57_Y57H]	0.417
AVSEGYKDFRA [CDA_Y79]	0.602
GTATAYLCGVK [ALPL_Y117]	0.756
LLREWYLQDPY [SIX3_Y225]	1.52
RPFRPYIIRGM [LRP5_Y1531_YF]	1.14
RHSGSYLVTSV [APC_Y2838]	0.759
RFMELYDLNRD [BBS2_Y648_YF]	1.28
AEPPDYSPVTQ [ADGRG2_Y285_H290Q]	1.46
SVTCTYYPALN [TP53_Y126_S127Y]	1.52
KQMEQYMSFHK [HCN1_Y417_V414M]	0.5
TDRNLYSKNLV [CFAP58_Y501_S496T]	0.564
RNESFYDTFST [EFCAB3_Y372]	1.07
VMLENYSNLLS [ZFP69_Y109_V113L]	0.66
KLKRSYPSPDI [USP8_Y717_S718P]	0.436
QLPRGYISILV [BAG3_Y205_P209L]	1.11
RPGGRYPVARR [SHANK3_Y1569_S1566G]	0.734
SKQGKYLNWDA [ATM_Y54]	0.79
IVEELYAIPPD [PEAK1_Y797_S792I]	3.84
KPLMPYMRFSR [SMARCE1_Y73_YF]	1.3
CSTIHYNFMCN [TP53_Y234_T230S_YF]	1.2
YSGIYYKPESL [L2HGDH_Y103_H98Y]	2.36
LERYIYNREEF [HLA-DPB1_Y59]	1.05
MSSHHYDYKKY [ZNF445_Y428]	0.503
SLQSEYVHFGG [CDC14A_Y591_YF]	1.24
FADIAYNFRRG [PAH_Y166_H170R_YF]	0.966
QDEHGYISRCF [HSPB1_Y133]	1.23
QNTGNYFDLFG [PTPN11_Y62_D61N_YF]	1.6
HFPFQYHRQLF [F12_Y53_YF]	0.924
SVVVPYEPHEV [TP53_Y220_P223H]	1.05
QDRDLYPCPGT [RLF_Y671]	1.05
